- Experimental details: soluble fraction after stress (log2 fold change); higher = more stays soluble; pooled small domains, quantitative proteomics
- Run conditions: stress: pH 4
Endpoint label: soluble fraction (log2)

* HMSTKYSSNIISLVKGLMEEDQYKDLMGPPLKKEIIKKVESITDTFPYKFDKDDKEFIVKKVLISLRK | 0.148
* HMDENDPYEILEIDRLASDDQVKAKYRALIRENHPDVLMAKGVPQEFIDLANRKMAVINAAYDRIEKEREF | -0.616
* HMSSTAIQAMIRRLIDGEDPRKPLSDARLAETLKASGVPVARRTVAKYRESMSIPSSQDRLRI | 0.0607
* HMEGSLQEDKVKEYQDRFKEELSNDLNTANSITVLYDLIKDDTLNGTTKRYLIEDFDKILSLDLIKE | -0.854
* HMDKQEKIHKKKIIILEALKRLLQNDVYSRITVQAVADEAGFSKGGLLHYFPTKEEMYIEFMEY | 0.092
* HMKDLSMPDVMGSSLNDAKKALTELGIMDITVRYVESGSSEGSIVGMEPPAGSKFAADGKVVLQVSSGS | 0.0083
* HMDIGTYTVTASALNIRQYPTASSAKTGSYPNGSIVTIYEYLTDGSWGRTDDGWISMNYVSRRY | -1.37
* HMGEKVIAVSGGFDPIHVGHLRMMQDAAQHGRLVVIVNSDEWLLKKKGYVFMPWEERAELIGAYDFVDE | -0.6
* HMIRSNLAEQAYAQLKALIHDFQLLPGDRFSENEMGTRLGVSRTPVREALFRLRNEGFLEVESKAGWYVK | -1.73
* HMGKNYYEILGITKSASEEQVRKAFRGLAMEWHPDRNRSADSEERFKEINEAYQVLIDPKKRQMYDQYGR | 0.349
* HMHLYDMYNLTEKEISIIRLIANGLNNKEISQELFLSEGTIKNNITNILAKLELRDRTQLAIFAFKNKIVI | -0.647
* HMQQYLDAYDKALAFGIAMNKLPSYENLTLDDKEDVDKLKEIYDGMSNYEKTFVAKDFTDKLDRYVKRIE | 0.144
* HMDIGKNIQTIRYANKLTQDQVIAKLNLMGISMSKSTYAKLETNRMNIKVSELVALAKIFHTDINAF | -0.274
* HMGLDQNTLDRVDDINDTLATGIEIGPETRGTIEELNETLANGLKAGFDEETLARVDELLRVVEDGLK | -1.15
* HMNDRLFQILYLLLEKGTMTAPELSRALEVSVRTIYRDIDALSLAGVPVYATQGKNGGVSLLPNY | -0.758
* HMFTKYSPDFKLSVILDMRKNNLGYGEVVRKYWNLDSYKESDRHRSQVRLWERIFLEEGVEGFM | -1.77

* * *

- Experimental details: soluble fraction after stress (log2 fold change); higher = more stays soluble; pooled small domains, quantitative proteomics
- Run conditions: stress: pH 4
Examples of sequences with documented soluble fraction (log2) follow.
Endpoint label: soluble fraction (log2)

* HMILKQTHIVQELTGPIRLQEYGVGIFQQISTKSALKKALKKNQITVDGVVGSTATFIKGGEIIIYHVTE | -1.68
* HMIQHFARKRRQLELAVQRLSGRMAETNGQVTADMQRLIQQVKALVAELSHVFSRAYLRRVLGGVALVIGS | -0.145
* HMILKNVPSNLVNQRLDKVATVLFQTYSRTQIKKWILEGRLLVNGEISNPKDLVNENDEIEINPI | 0.3
* HMFDFGNHLRMLREKHGISQEELGRRVGRAGSVISNYENNIKIPTLDVLTTMARIYDVSLDYLVG | -1.06
* HMHLKRQEAINLGAYLLGAELRIHRLSLEELGSERIDEMLAAINYKTLDDLLADIGLGNRPARFVARQLG | -1.65
* HMDKVEQLMQNPVIQEKMSEGDRELLRNASLVVLGRLEDDGSIIQRFVELFGEEAYERLKSELM | -0.865
* HMQPPKIISTVEPYREVVREYLKQGVEMTAIWQRLRENYQYTGSYSSVRRFVAQLEPRQPEA | -0.135
* HMPLTKKLETLFSLFPKYEKELKKKGVTRIHVWANYKEEYPDGIGRSQFIHYYSFWKKQVSP | -0.045
